assay: In vivo PK DDI study of TOF with or without RTV in rats (plasma LC-MS/MS, NCA); parameters: species or system Sprague–Dawley rats; details: Sprague-Dawley, rat, plasma, oral, rat plasma, 12 h after TOF 10 mg/kg oral; RTV 10 mg/kg; read-out: Lowest plasma concentration at 12 h
measured-metric: concentration at 12 h (ng/mL)
Your answer should be a plain number; it is taken to be in ng/mL.

Assign concentration at 12 h to the following record: `C[C@@H]1CCN(C(=O)CC#N)C[C@@H]1N(C)c1ncnc2[nH]ccc12` 1.5

* * *

experiment: In vivo PK DDI study of TOF with or without RTV in rats (plasma LC-MS/MS, NCA); set-up: species or system Sprague–Dawley rats; settings: Sprague-Dawley, rat, plasma, oral, rat plasma, 12 h after TOF 10 mg/kg oral; RTV 10 mg/kg; read-out: Mean plasma concentration at 12 h
measured-metric: concentration at 12 h (ng/mL)
Your answer should be a plain number; it is taken to be in ng/mL.

Assign concentration at 12 h to the following record: `C[C@@H]1CCN(C(=O)CC#N)C[C@@H]1N(C)c1ncnc2[nH]ccc12` 21.9

* * *

assay: In vivo PK DDI study of TOF with or without RTV in rats (plasma LC-MS/MS, NCA); set-up: species or system Sprague–Dawley rats; conditions: Sprague-Dawley, rat, plasma, po, 10 mg/kg, rats, TOF 10 mg/kg oral; Control (TOF only, vehicle); median [interquartile range]
measured-metric: AUC(0-inf) (ng·h/mL)
Your answer should be a plain number; it is taken to be in ng·h/mL.

Assign AUC(0-inf) to the following record: `C[C@@H]1CCN(C(=O)CC#N)C[C@@H]1N(C)c1ncnc2[nH]ccc12` 2720

* * *

test: In vivo PK DDI study of TOF with or without RTV in rats (plasma LC-MS/MS, NCA); parameters: species or system Sprague–Dawley rats; conditions: Sprague-Dawley, rat, plasma, po, 10 mg/kg; read-out: Tmax
measured-metric: Tmax (h)
Your answer should be a plain number; it is taken to be in h.

Assign Tmax to the following record: C[C@@H]1CCN(C(=O)CC#N)C[C@@H]1N(C)c1ncnc2[nH]ccc12 [TOF, Tofacitinib] 1

* * *

experiment: In vivo PK DDI study of TOF with or without RTV in rats (plasma LC-MS/MS, NCA); set-up: species or system Sprague–Dawley rats; conditions: Sprague-Dawley, rat, plasma, oral, rat plasma, 12 h after TOF 10 mg/kg oral; RTV 20 mg/kg; read-out: Lowest plasma concentration at 12 h
measured-metric: concentration at 12 h

Assign concentration at 12 h to the following record: `C[C@@H]1CCN(C(=O)CC#N)C[C@@H]1N(C)c1ncnc2[nH]ccc12` 2.6 ng/mL
